Give pKd for every item shown.
# TEST_SYSTEM: hNTS2 (Homo sapiens, UniProt O95665)
# Construct: expressed in transfected cells; host or cells: CHO-K1
# Sequence (O95665 whole entry): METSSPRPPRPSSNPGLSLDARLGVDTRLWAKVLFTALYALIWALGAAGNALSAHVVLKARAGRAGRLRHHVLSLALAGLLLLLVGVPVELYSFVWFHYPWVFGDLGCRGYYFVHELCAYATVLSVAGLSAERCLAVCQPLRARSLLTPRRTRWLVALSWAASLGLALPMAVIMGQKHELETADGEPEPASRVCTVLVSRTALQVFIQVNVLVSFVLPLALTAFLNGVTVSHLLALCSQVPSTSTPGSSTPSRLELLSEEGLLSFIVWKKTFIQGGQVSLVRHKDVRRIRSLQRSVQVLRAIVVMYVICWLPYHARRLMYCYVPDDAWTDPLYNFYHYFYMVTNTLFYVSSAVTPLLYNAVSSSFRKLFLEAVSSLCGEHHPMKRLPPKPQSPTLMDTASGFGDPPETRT
# EXPERIMENT_SUMMARY: Radioligand competition binding with [3H]NT, membranes of CHO-K1 cells expressing hNTS2
Where no end group is shown, it is not given here.
The meaning of pKd here: minus log10 of the concentration in molar units.

# RRPYLL [NT09, [L-Leu^12]NT(8-13)] with hNTS2 (Homo sapiens, UniProt O95665): pKd is 8.62

The substance RRGYIL [NT07, [Gly^10]NT(8-13)] , when measured on hNTS2 (Homo sapiens, UniProt O95665), yielded pKd of 6.01

Tested on hNTS2 (Homo sapiens, UniProt O95665), the item RRPYVL [NT10, [L-Val^12]NT(8-13)] showed pKd equal to 8.06

hNTS2 (Homo sapiens, UniProt O95665) pKd of RKPYIL [NT18, [L-Lys^9]NT(8-13)] is 8.93
